System: MCF-7 (DSMZ ACC 115) cells
test-method-notes: cells
Assay type: cell-based
recorded-conditions: Homo sapiens, MCF7, 120 h, read-out: IC50 [nM] MCF-7, growth inhibition, 5 days of incubation, MTT assay
Task for the reader: assign each of the following molecules its reported IC50.
Hi! Could you send only the number? It should be in nM, unit omitted.

Value lookup for IC50; key = C#CCCOC(=O)N[C@H](/C=C/C=C(\C)C[C@@H](C)/C=C(C)\C=C\[C@H]1CC=CC(=O)O1)[C@@H]1C[C@@H](O)[C@H](C)[C@H](/C=C/C)O1
0.27

# repeat for C#CCCOC(=O)N[C@@H](/C=C/C=C(\C)C[C@@H](C)/C=C(C)\C=C\[C@H]1CC=CC(=O)O1)[C@@H]1C[C@@H](O)[C@H](C)[C@H](/C=C/C)O1
0.62

Now this one: C/C=C/[C@@H]1O[C@H](C(=O)/C=C/C=C(\C)C[C@@H](C)/C=C(C)\C=C\[C@H]2CC=CC(=O)O2)CC(=O)[C@@H]1C
2.87

Next molecule up: C/C=C/[C@@H]1O[C@H]([C@@H](/C=C/C=C(\C)C[C@@H](C)/C=C(C)\C=C\[C@H]2CC=CC(=O)O2)NC(=O)OCc2ccc(NC(=O)[C@H](CCCNC(N)=O)NC(=O)[C@@H](NC(=O)OC[C@@H]3[C@@H]4CCC#CCC[C@@H]43)C(C)C)cc2)C[C@@H](O)[C@@H]1C
20.2

Now consider C#CCCC(=O)N[C@H](/C=C/C=C(\C)C[C@@H](C)/C=C(C)\C=C\[C@H]1CC=CC(=O)O1)[C@@H]1C[C@@H](O)[C@H](C)[C@H](/C=C/C)O1 .
0.4

Another molecule: C#CCCC(=O)NCCSSCCC(=O)N[C@H](/C=C/C=C(\C)C[C@@H](C)/C=C(C)\C=C\[C@H]1CC=CC(=O)O1)[C@@H]1C[C@@H](O)[C@H](C)[C@H](/C=C/C)O1
0.17

Queued: C/C=C/[C@@H]1O[C@H]([C@@H](/C=C/C=C(\C)C[C@@H](C)/C=C(C)\C=C\[C@H]2CC=CC(=O)O2)NC(=O)CCSSc2ccccn2)C[C@@H](O)[C@@H]1C
26

Can you handle C/C=C/[C@@H]1O[C@H]([C@H](N)/C=C/C=C(\C)C[C@@H](C)/C=C(C)\C=C\[C@H]2CC=CC(=O)O2)C[C@@H](O)[C@@H]1C [16R-Amino-Ratjadone 11] next?
0.26

C#CCNC1C[C@@H]([C@H](O)/C=C/C=C(\C)C[C@@H](C)/C=C(C)\C=C\[C@H]2CC=CC(=O)O2)O[C@@H](/C=C/C)[C@H]1C (stereo partly shown) , same question.
1.31

Let us now turn to C/C=C/[C@@H]1O[C@H](C(=O)/C=C/C=C(\C)C[C@@H](C)/C=C(C)\C=C\[C@H]2CC=CC(=O)O2)C[C@@H](O)[C@@H]1C
0.22
